// reported exon inclusion enrichment index for each item listed
B1: mRNA-splicing (parent)
chain: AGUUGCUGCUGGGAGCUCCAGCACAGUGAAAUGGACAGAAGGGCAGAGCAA

variants of: B1; assay: exon inclusion enrichment index; higher = more inclusion; WT1 exon 5 minigene, HEK293
I'd appreciate a reply containing only the number, no unit.

Known exon inclusion enrichment index results, listed for orientation:
1) G5A U7C G8A U10C G21A = 1.67
2) G5C C6U G8C C9U U10C G13U A14G = 0.52
3) G5C C6A U7C G8A U10A G11C G12C = 0.382
4) G5C C6G U7C U10C G15U C16G = 4.02
5) G5A C6U U7A G8U C9A C16G = 0.0112

Query string: Would you kindly share the measured exon inclusion enrichment index for G5C C6G U7C U10C G21A C22G ?
Result string: 3.81

Query string: Proceed to G5C C6A U7C G8A C9U U10C
Result string: 2.03

Query string: Proceed to C6A U7A C9A U10A A39G A40G
Result string: 0.0665

Query string: Proceed to G5C C6A U7C G8A U10A G41U G42U
Result string: 0.0854

Query string: Proceed to C6A U7A C9A U10A G28C A29G
Result string: 1.45

Query string: Proceed to G5C C6U G8C C9U U10C A45G G46U
Result string: 1.68

Query string: Proceed to G5C C6U G8C C9U U10C A20G G21C
Result string: 1.71

Query string: Proceed to U7G G8C
Result string: 2.05

Query string: Proceed to C6A U7A C9A U10A G33U G34A
Result string: 0.0617
